# testName: chemical genetic growth profiling, strain panel (AID 1159580);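 further: tested at 20 µM; growth read once vehicle control cultures reached saturation at 30 °C; 1 = growth at the plate median or of vehicle wells; lower values mean less growth of the strain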
# recordedConditions: S. cerevisiae deletion strains, growth OD, locus YML120C, strain ndi1, active compounds read low
The campaign covered roughly 5,500 compounds. About 2,000 (36%) were called active. About 18% were inconclusive and are not listed. The list shows a part of the results.
In plain terms, low normalized growth, meaning strictly below 1, gives YES, and everything else gives NO.

- molecule: "Nc1c2ccccc2nc2ccccc12 (tested in a mixture with another compound)"
  assignedClass: "YES"

Ask: A record lists COc1cccc2c1C(=O)c1c(O)c3c(c(O)c1C2=O)C[C@@](O)(C(C)=O)C[C@@H]3O[C@H]1C[C@H](N)[C@H](O)[C@H](C)O1 . Is its normalized growth below 1?
Result: YES

Ask: A record lists NC12CC3CC(CC(C3)C1)C2 . Is its normalized growth below 1?
Result: NO

Ask: A record lists COc1cccc2c1C(=O)c1c(O)c3c(c(O)c1C2=O)C[C@@](O)(C(=O)CO)C[C@@H]3O[C@H]1C[C@H](N)[C@@H](O)[C@H](C)O1 . Is its normalized growth below 1?
Result: YES

Ask: A record lists Cc1cc(C(C)(C)C)c(O)c(C(C)(C)C)c1 . Is its normalized growth below 1?
Result: YES

* * *

# testName: chemical genetic growth profiling, strain panel (AID 1159580)
# recordedConditions: S. cerevisiae deletion strains, growth OD, locus YMR205C, strain PFK2, active compounds read low
Hit rate of the full screen: of about 5,500 compounds, about 2,000 (36%) were called active. Roughly 18% stayed inconclusive and do not appear here. The list shows a part of the results.
In plain terms, low normalized growth, meaning strictly below 1, gives 1, and everything else gives -1.

- compound: "CC(C)CCCC1(C)C=Cc2c(O)c3c(c(CCC(C)C)c2O1)OC12C(CC4CC1C(C)(C)OC2(CCC(C)C(=O)O)C4O)C3=O (stereo unspecified)"
  assignedClass: 1
- compound: "CCC(C)C(NC)C(=O)O (stereo unspecified)"
  assignedClass: -1
- compound: "O=C(Nc1ccc(C(=O)O)c(O)c1)c1ccccc1"
  assignedClass: 1

Continue with the next compound.
Ask: A record lists CCCCCCCCCCCCCCC(C(=O)O)C(O)(CC(=O)OC)C(=O)O (stereo unspecified) . Is its normalized growth below 1?
Result: -1

* * *

# testName: chemical genetic growth profiling, strain panel (AID 1159580)
# recordedConditions: S. cerevisiae deletion strains, growth OD, locus YCL061C, strain MRC1, active compounds read low
Among all 5,500 compounds or so, about 2,000 (36%) were called active. Another 18% or so got no clear call; they are omitted. The list shows a part of the results.
In plain terms, low normalized growth, meaning strictly below 1, gives t, and everything else gives f.

- molecule: "COc1cccc2c1C(=O)c1c(O)c3c(c(O)c1C2=O)C[C@@](O)(C(=O)CO)C[C@@H]3O[C@H]1C[C@H](N)[C@@H](O)[C@H](C)O1"
  assignedClass: "t"

Continue with the next molecule.
Ask: A record lists CCC(C)C(NC)C(=O)O (centres undefined) . Is its normalized growth below 1?
Result: f

* * *

A collection of compounds and their measured normalized growth
# testName: chemical genetic growth profiling, strain panel (AID 1159580)
# recordedConditions: S. cerevisiae deletion strains, growth OD, locus YDR052C, strain DBF4, active compounds read low
Out of some 5,500 compounds screened, about 2,000 (36%) were called active. About 18% were inconclusive and are not listed. The list shows a part of the results.
Write the number on its own, no unit after it.

Ask: Dear colleague, please send me the reported normalized growth for OC1CCN(c2cc(C(F)(F)F)nc3cc(Cl)cc(Cl)c23)CC1 when you can.
Result: 0.989

Ask: Dear colleague, please send me the reported normalized growth for Cc1nc(-c2ccccn2)[nH]c(=O)c1Cc1c(Cl)cccc1Cl when you can.
Result: 0.96

Ask: Dear colleague, please send me the reported normalized growth for Cc1csc(NC(=O)Nc2ccc(C(F)(F)F)cc2)c1Cl when you can.
Result: 0.961

Ask: Dear colleague, please send me the reported normalized growth for Cc1ccc(S(=O)(=O)n2c(Sc3ccc([N+](=O)[O-])cc3[N+](=O)[O-])nc3cc(C)ccc32)cc1 when you can.
Result: 0.987

Ask: Dear colleague, please send me the reported normalized growth for CCCc1nc(-c2ccccn2)[nH]c(=O)c1CC1CC1 when you can.
Result: 0.962

* * *

# testName: chemical genetic growth profiling, strain panel (AID 1159580);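 further: tested at 20 µM; growth read once vehicle control cultures reached saturation at 30 °C; 1 = growth at the plate median or of vehicle wells; lower values mean less growth of the strain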
# recordedConditions: S. cerevisiae deletion strains, growth OD, locus YIL073C, strain SPO22, active compounds read low
About 2,000 (36%) of roughly 5,500 compounds were called active. About 18% were inconclusive and are not listed. This is one part of the list.
propertyName: normalized growth
Write the number on its own, no unit after it.

For orientation, consider the following solved cases.
- compound: "COC(=O)C[C@H]1C(C)(C)C(=O)[C@@H]2CC3C4=CC(=O)O[C@@H](c5ccoc5)[C@]4(C)CCC3[C@@]1(C)C2=O (stereo partly specified)"
  normalized growth: 0.957
- compound: "NNC(=O)c1ccncc1"
  normalized growth: 1.01
- compound: "C#C[C@]1(O)CCC2C3CCC4=C(CCC(=O)C4)C3CC[C@@]21C (stereo partly specified)"
  normalized growth: 0.968
- compound: "Cc1cc(C(C)(C)C)c(O)c(C(C)(C)C)c1"
  normalized growth: 0.929
- compound: "Cc1ccc(-c2cc(C(F)(F)F)nn2-c2ccc(S(N)(=O)=O)cc2)cc1"
  normalized growth: 0.994

Ask: Dear colleague, please send me the reported normalized growth for C#C[C@]1(O)CCC2C3CCC4=CC(=O)CC[C@@H]4C3CC[C@@]21C (stereo partly specified) when you can.
Result: 0.9

* * *

A collection of molecules and their measured normalized growth
# testName: chemical genetic growth profiling, strain panel (AID 1159580);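 further: tested at 20 µM; growth read once vehicle control cultures reached saturation at 30 °C; 1 = growth at the plate median or of vehicle wells; lower values mean less growth of the strain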
# recordedConditions: S. cerevisiae deletion strains, growth OD, locus YKL190W, strain CNB1, active compounds read low
About 2,000 (36%) of roughly 5,500 compounds were called active. Not shown: some 18% with an inconclusive outcome. The list shows a part of the results.

- molecule: "CC1(C)CC[C@]2(C(=O)O)CC[C@]3(C)C(=CCC4[C@@]5(C)CC[C@@H](O)C(C)(C)C5CC[C@]43C)C2C1 (stereo partly specified)"
  normalized growth: "1.02 (inactive)"
- molecule: "CCCOc1ccccc1-c1nc2n[nH]nc2c(=O)[nH]1"
  normalized growth: "1 (inactive)"
- molecule: "CCOC(=O)OC(C)OC(=O)C1N2C(=O)C(NC(=O)[C@H](N)c3ccccc3)C2SC1(C)C (stereo partly specified)"
  normalized growth: "0.975 (inactive)"
- molecule: "FC(F)(F)c1cccc(CSc2n[nH]c(=S)s2)c1"
  normalized growth: "0.887 (active)"

Ask: Dear colleague, please send me the reported normalized growth for CCCc1nc(-c2ccccn2)[nH]c(=O)c1CC1CC1 when you can.
Result: 0.698 (active)

Ask: Dear colleague, please send me the reported normalized growth for COc1cc(N)c(Cl)cc1C(=O)NC1CCN(Cc2ccccc2)CC1 when you can.
Result: 0.992 (inactive)

Ask: Dear colleague, please send me the reported normalized growth for COC(=O)C[C@H]1C(C)(C)C(=O)[C@@H]2CC3C4=CC(=O)O[C@@H](c5ccoc5)[C@]4(C)CCC3[C@@]1(C)C2=O (stereo partly specified) when you can.
Result: 0.98 (inactive)

Ask: Dear colleague, please send me the reported normalized growth for Cc1noc(C)c1NC(N)=O when you can.
Result: 1.01 (inactive)

Ask: Dear colleague, please send me the reported normalized growth for COc1cccc(OC)c1OCCNCC1COc2ccccc2O1 (stereo unspecified) when you can.
Result: 1.01 (inactive)

Ask: Dear colleague, please send me the reported normalized growth for S=C(NCc1ccccc1)Nc1ccc(Cl)c(Cl)c1 when you can.
Result: 0.68 (active)

Ask: Dear colleague, please send me the reported normalized growth for CC1(C)CC[C@]2(C)CC[C@]3(C)C(=CCC4[C@@]5(C)CC[C@H](O)C(C)(C)C5CC[C@]43C)C2C1 (stereo partly specified) when you can.
Result: 1 (inactive)

* * *

# testName: chemical genetic growth profiling, strain panel (AID 1159580);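 further: tested at 20 µM; growth read once vehicle control cultures reached saturation at 30 °C; 1 = growth at the plate median or of vehicle wells; lower values mean less growth of the strain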
# recordedConditions: S. cerevisiae deletion strains, growth OD, locus YMR307W, strain GAS1, active compounds read low
Out of some 5,500 compounds screened, about 2,000 (36%) were called active. Inconclusive results (about 18%) are left out. The list shows a part of the results.
propertyName: normalized growth
Write the number on its own, no unit after it.

For orientation, consider the following solved cases.
- compound: "O=[N+]([O-])c1cc(Cl)ccc1S(=O)(=O)c1ccccc1"
  propertyName: "normalized growth"
  endpointResult: 0.829
- compound: "CC(C)=CCCC1(C)C=Cc2c(O)c3c(c(CC=C(C)C)c2O1)OC12C(=CC4CC1C(C)(C)OC2(C/C=C(/C)C(=O)O)C4=O)C3=O (stereo not given)"
  propertyName: "normalized growth"
  endpointResult: 0.571
- compound: "Nc1ccc(S(=O)(=O)c2ccc(N)cc2)cc1"
  propertyName: "normalized growth"
  endpointResult: 1.08

Ask: Dear colleague, please send me the reported normalized growth for Cc1c(S(=O)(=O)c2ccc(Cl)cc2)cnc2cc(C(C)(C)C)nn12 when you can.
Result: 0.945

Ask: Dear colleague, please send me the reported normalized growth for COc1ccc2[nH]cc(CCN)c2c1 when you can.
Result: 0.947
